# assayedTarget: T1, recombinant human IL-23R-Fc chimera (human, UniProt Q5VWK5 24-353)
# T1 construct: used at 0.1 µg/ml in the ELISA; not shown: Fc part of the chimera; detected with goat anti-hu-IgG1-HRP a
# T1 sequence (looked up): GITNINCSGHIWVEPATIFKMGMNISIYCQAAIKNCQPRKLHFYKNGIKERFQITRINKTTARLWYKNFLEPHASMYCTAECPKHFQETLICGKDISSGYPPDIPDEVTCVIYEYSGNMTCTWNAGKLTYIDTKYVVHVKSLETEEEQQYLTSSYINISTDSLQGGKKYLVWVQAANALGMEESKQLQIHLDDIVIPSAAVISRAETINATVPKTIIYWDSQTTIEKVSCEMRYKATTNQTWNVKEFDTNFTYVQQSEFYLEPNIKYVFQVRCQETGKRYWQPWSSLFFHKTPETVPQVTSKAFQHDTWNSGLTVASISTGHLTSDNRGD
# experimentalDetails: competition ELISA: IL-23R-Fc binding to coated human IL23
pIC50: −log10 of the molar value. Starred links: 1 amine or outer side, 2 acyl side, 3 side chain; linkers in the order of their positions; H or OH if unused. Positions of bridges follow the written chain, without caps; N, C: chain ends. Non-standard residues stand in square brackets, D forms with d. Yde = (2S)-2-amino-3-[4-[2-(dimethylamino)ethoxy]phenyl]propanoic acid, CN(C)CCOc1ccc(C[C@H](N[*:1])C(=O)[*:2])cc1; NdmK = (2S)-6-amino-2-(dimethylamino)hexanoic acid, CN(C)[C@@H](CCCCN[*:3])C(=O)[*:2]; Trp(7-Me) = Cc1cccc2c(C[C@H](N)C(=O)O)c[nH]c12; αMeLys(Me2) = CN(C)CCCC[C@](C)(N)C(=O)O; 2Nal = N[C@@H](Cc1ccc2ccccc2c1)C(=O)O; εLys = N[C@@H](CCCCN[*:1])C(=O)[*:2]; NMe5Ava = CN(CCCCC(=O)[*:2])[*:1]; 3Pal = N[C@@H](Cc1cccnc1)C(=O)O; αMeL = CC(C)C[C@](C)(N)C(=O)O; Ava = NCCCCC(=O)O; Sar = CNCC(=O)O
quantityMeasured: pIC50

binder | testResult
[Ava]C[εLys](Ac)WQC[Yde][2Nal][αMeL]ENN-NH2 (lactam N-10; disulfide 2-6; also: Cys2 carboxyl bonded to Lys3 epsilon-NH2 (isopeptide), Lys3 alpha-N acetylated) [Compound of SEQ ID NO: 28] | 9.41
[NMe5Ava]C[NdmK][Trp(7-Me)]K(Ac)C[Yde][2Nal][αMeLys(Me2)]EN[3Pal][Sar]-NH2 (lactam N-10; disulfide 2-6) [Compound of SEQ ID NO: 61] | 9.44
[Ava]CNT[Trp(7-Me)]K(Ac)C[Yde][2Nal][αMeL]EN[3Pal][Sar]-NH2 (lactam N-11; disulfide 2-7; SMILES CC(=O)NCCCC[C@@H]1NC(=O)[C@H](Cc2c[nH]c3c(C)cccc23)NC(=O)[C@H]([C@@H](C)O)NC(=O)[C@H](CC(N)=O)NC(=O)[C@@H]2CSSC[C@H](NC1=O)C(=O)N[C@@H](Cc1ccc(OCCN(C)C)cc1)C(=O)N[C@@H](Cc1ccc3ccccc3c1)C(=O)N[C@@](C)(CC(C)C)C(=O)N[C@H](C(=O)N[C@@H](CC(N)=O)C(=O)N[C@@H](Cc1cccnc1)C(=O)N(C)CC(N)=O)CCC(=O)NCCCCC(=O)N2) [Compound of SEQ ID NO: 65] | 9.43
XXNTWQXXXXENN (not fully specified; Apt(§1)-Pen(@2)-N-T-W-Q-Pen(@2)-Yae-Nal-Thp-E(§1)-N-N-NH2) [Pen peptide compound of SEQ ID NO: 163] | 6.79
